# key: entry, value: GI50
- Test system: SK-OV-3
- Assay name: NCI tumour cell line growth inhibition, 48 h
Active and inactive are the calls of the source. No stated cut-off is given here; in the data, active = GI50 up to about 1.1 µM and inactive = higher.
Quantity kind: GI50

CC(=O)C1CC=C(C)CC1 (stereo unspecified): > 100 µM (inactive)
N=C(CSSCC(=N)NCC12CC3CC(CC(C3)C1)C2)NCC12CC3CC(CC(C3)C1)C2: 17 µM (inactive)
C=C1C(=O)O[C@@H]2[C@H]1CCC(C)=C1C=CC(=O)[C@]12C: 27.2 µM (inactive)
O=[N+]([O-])c1c(/C=N/c2ccccc2)oc(-c2ccc3c(c2)OCO3)c1-c1ccc2c(c1)OCO2: 44.9 µM (inactive)
O=C(O)c1ccc(C2COc3ccc(Cl)cc3C2)cc1 (stereo unspecified): > 100 µM (inactive)
CN(C(=O)CCC(=O)O)c1ccccc1C(=O)O: > 100 µM (inactive)

---

- Tested on: MOLT-4
- Assay name: NCI tumour cell line growth inhibition, 48 h
Active and inactive are the calls of the source. No stated cut-off is given here; in the data, active = GI50 up to about 1.1 µM and inactive = higher.
Possible outcomes: active, inactive

COc1cccc(CN(C(=O)/C=C\Sc2ccccc2)C(C)(C)C)c1: inactive
COc1cc2cc(C(=O)N3CC(COS(C)(=O)=O)c4c3cc([N+](=O)[O-])c3ccccc43)[nH]c2c(OC)c1OC (stereo not given): active
COC1CC(C)C(OC)C2=CC(=O)C=C(NC(=O)/C(C)=C/C=C\C(C)C(OC(N)=O)/C(C)=C\C(C)C1OC)C2=O (stereo not given): active
CSC1=C(C#N)C(=S)N=C(N)C1C(=O)Nc1ccc(C)cc1 (stereo not given): inactive
O=P1(Oc2ccccc2)N(CCCl)CCN1c1ccccc1 (stereo not given): inactive
c1ccc([B-]23Oc4ccccc4[NH+]2c2ccccc2O3)cc1 (stereo not given): inactive
c1ccc(CN2CCN3CCN(CC2)CCN(Cc2ccccc2)CC3)cc1: inactive
CCc1cccc(C)c1NC(=O)NS(=O)(=O)c1ccc(C)cc1: inactive
COc1ccc(S(=O)(=O)N/N=C\c2cc([N+](=O)[O-])cc(I)c2O)c(OC)c1OC: inactive
COc1cc([C@@H]2OC(=O)C3C2C(=O)O[C@H]3c2cc(OC)c(OC)c(OC)c2)cc(OC)c1OC (stereo not given in full): inactive

---

- System: A498
- Assay name: NCI tumour cell line growth inhibition, 48 h
Activity calls are given as the source filed them. Rule as the data show it: active = GI50 up to about 1.1 µM and inactive = higher.
# key: entry, value: GI50
Quantity kind: GI50

COc1ccccc1/C=C1\CCC(Cc2ccccc2)(CN(C)C)C1=O (stereo not given): 6.93 µM (inactive)
C=C1C(=O)OC2C[C@@]3(C)CCCC(=C)C3CC12 (stereo not given in full): 6.89 µM (inactive)
O=[N+]([O-])c1ccccc1[S+]([O-])c1ccccc1 (stereo not given): 63.2 µM (inactive)
CCOC(=O)C1=C(C)N(CC(C)C)C2(O)C(OC)CC(=O)C3C(=O)N(c4ccccc4)C(=O)C132 (stereo not given): 78.5 µM (inactive)
CCCCCCCCCCCCCCCCCCOCC(O)COP(=O)(O)OCC1OC(n2ccc(N)nc2=O)C(O)C1O (stereo not given): 11 µM (inactive)

---

# key: entry, value: GI50
- Tested on: HT-29
- Assay name: NCI tumour cell line growth inhibition, 48 h
Activity calls are given as the source filed them. No stated cut-off is given here; in the data, active = GI50 up to about 1.1 µM and inactive = higher.
Quantity kind: GI50

O=[N+]([O-])c1c(/C=N/c2ccccc2)oc(-c2ccc3c(c2)OCO3)c1-c1ccc2c(c1)OCO2: > 100 µM (inactive)
C/C(=C/CC[C@](C)(OC1OC(CO)C(O)C(O)C1O)[C@H]1CC[C@]2(C)[C@@H]1CC[C@@H]1[C@@]3(C)CC[C@H](O)C(C)(C)[C@@H]3C[C@H](O)[C@]12CO)CO (some centres undefined): > 100 µM (inactive)
C=CCN1C(=O)/C(=C/c2ccc(C)cc2)N=C1SC1OC(COC(C)=O)C(OC(C)=O)C(OC(C)=O)C1OC(C)=O (centres undefined): > 100 µM (inactive)
N#Cc1c(C#N)c(SSc2c(C#N)c(C#N)c(N)n2-c2cccc3ccccc23)n(-c2cccc3ccccc23)c1N: 19.7 µM (inactive)
COC1(OC)CCCCCCCCC(OC)(OC)CCCCCCCC1: > 100 µM (inactive)
CC1=C(C(=O)Nc2ccccc2C)C(c2ccc(C3C(C(=O)Nc4ccccc4C)=CNC=C3C(=O)Nc3ccccc3C)cc2)C(C(=O)Nc2ccccc2C)=C(C)N1: 14.4 µM (inactive)
COc1ccc2cc1Oc1ccc(cc1)CC1c3cc(c(OC)cc3CCN1C)Oc1c3c(cc4c1C(C2)N(C)CC4)OCO3 (centres undefined): 2.46 µM (inactive)
Cc1ccc(S(=O)(=O)NC(=O)Nc2cccc(S(N)(=O)=O)c2)cc1: > 100 µM (inactive)
Cc1cc(Cl)ccc1NC(=O)CC1SC(N)=NC1=O (centres undefined): > 100 µM (inactive)
N#CC(C#N)=Cc1ccc(C=C2SC3=C(SCCS3)S2)s1: 3.39 µM (inactive)
C/C(CCn1[nH]c(=O)ccc1=O)=N\Nc1ccc([N+](=O)[O-])cc1[N+](=O)[O-]: > 100 µM (inactive)
COC(=O)[C@H]1CO[C@@H](C(C)(C)C)N1C(=O)N1C=CC(=O)C[C@@H]1C: > 100 µM (inactive)
CN(C)Cc1cc(/N=N/c2cccc(Cl)c2)ccc1O: 17 µM (inactive)
Cc1coc2c1CC1(C)C(CCC(O)C1C)C2 (centres undefined): > 100 µM (inactive)
CC(C)N(C(=O)c1ccc(NCc2cc(O)ccc2O)cc1)C(C)C: 18 µM (inactive)
CC(=O)C1CC=C(C)CC1 (centres undefined): > 100 µM (inactive)
N#Cc1c(N2CCCC2)ncn(Cc2ccccc2)c1=S: > 100 µM (inactive)
COc1cc(/C=C/C(=O)Oc2ccccc2)ccc1C(=O)O/C=C/c1ccccc1: > 100 µM (inactive)
O=C(O)c1cc2ccccc2c(/N=N/c2ccc(S(=O)(=O)O)cc2)c1O: > 100 µM (inactive)
